target: Serine/threonine-protein kinase pim-1 (Homo sapiens); assay: Inhibition of human GST fused Pim1 expressed in Escherichia coli assessed as residual activity at 10 uM after 30 mins
Sequence (P11309 whole entry, looked up, the tested form may be a part): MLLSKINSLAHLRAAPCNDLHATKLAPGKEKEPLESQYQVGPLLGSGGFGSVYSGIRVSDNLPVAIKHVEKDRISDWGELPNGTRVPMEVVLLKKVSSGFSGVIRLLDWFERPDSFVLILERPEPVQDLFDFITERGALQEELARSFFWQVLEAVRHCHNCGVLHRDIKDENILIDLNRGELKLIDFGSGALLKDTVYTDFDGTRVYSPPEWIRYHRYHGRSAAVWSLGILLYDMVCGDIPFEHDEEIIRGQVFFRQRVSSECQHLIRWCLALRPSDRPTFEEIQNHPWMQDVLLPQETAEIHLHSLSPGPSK
Record form. Attribute: Activity. Fill in for each entry.
Note: state the figure and append the unit.

Given the molecule O=Cc1c[nH]c2c1ccc1c2[nH]c2cc(Cl)cc(Cl)c21 , what is its reported Activity? 8%

Please look up its Activity: COC(=O)c1cccc2c1[nH]c1c2ccc2c(C=O)c[nH]c21 2%

Param item = O=Cc1c[nH]c2c1ccc1c3cc([N+](=O)[O-])ccc3[nH]c12 ; retrieve measured Activity. 103%

# input molecule: Cc1ccc2c(c1)[nH]c1c2ccc2c(C=O)c[nH]c21 ; wanted: its Activity 15%
